Assignment: determine reported pIC50 for the given molecules.
target: PKA (Homo sapiens); experiment: PKA kinase inhibition, Z'-LYTE FRET assay; format: biochemical; conditions: 20 μM ATP
Remember the convention: pIC50 equals -log10 of concentration in molar.

Record Nc1nc(-c2cncc(OC[C@@H](N)Cc3ccccc3)c2)cc2c1cnc1ccccc12 [Ia-3] , field pIC50: 6.52

Briefly, pIC50 measured for Nc1nc(-n2ccnc2)cc2c1cnc1cc(/C=C/CCN3CCCC3)ccc12 [Ia-24] : 6.62

Looking up COc1cc2ncc3c(N)nc(-c4cncc(OC[C@@H](N)CN5CCNC(=O)C5)c4)cc3c2cc1OC [Ib-37] , I see its pIC50 listed as 6.07

The molecule identified as COc1cc2ncc3c(N)nc(-c4cncc(OC[C@H](N)Cc5ccc(F)cc5)c4)cc3c2cc1OC [Ib-47] registered its pIC50 at 7.60

Sure, the documented pIC50 for Nc1nc(-c2cncc(OC[C@@H](N)Cc3ccccc3)c2)cc2c1cnc1cc(C#CCCn3ccnc3)ccc12 [Ia-5] is 6.47

In plain terms, COc1cc2ncc3c(N)nc(-c4cncc(OC[C@H](N)CN5Cc6ccccc6C5)c4)cc3c2cc1OC [Ib-48] has a documented pIC50 of 5.57

The molecule identified as COc1cc2ncc3c(N)nc(-c4cncc(OC[C@@H](N)CN5CCOCC5)c4)cc3c2cc1OC [Ib-45] registered its pIC50 at 6.19

For reference, reported pIC50 for COc1cc2ncc3c(N)nc(-c4cncc(OC[C@@H](N)Cc5ccccc5)c4)cc3c2cc1OC [Ib-62] stands at 7.64
